tested.target: Aurora kinase A (Homo sapiens)
Sequence (whole entry): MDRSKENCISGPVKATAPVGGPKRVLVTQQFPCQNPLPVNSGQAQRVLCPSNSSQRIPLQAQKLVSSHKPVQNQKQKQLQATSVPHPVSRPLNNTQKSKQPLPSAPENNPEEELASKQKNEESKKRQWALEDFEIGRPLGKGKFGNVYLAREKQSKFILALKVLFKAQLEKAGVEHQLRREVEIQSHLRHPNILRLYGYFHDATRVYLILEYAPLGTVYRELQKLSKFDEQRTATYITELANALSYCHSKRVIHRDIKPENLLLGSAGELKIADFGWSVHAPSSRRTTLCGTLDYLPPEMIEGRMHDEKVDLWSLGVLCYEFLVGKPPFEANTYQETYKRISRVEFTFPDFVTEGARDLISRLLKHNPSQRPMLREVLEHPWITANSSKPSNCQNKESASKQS
test.protocol: Enzymatic radiometric [Km ATP] KinaseProfiler LeadHunter assay, kinase: Aurora-A, catalogue number: 14-511KP The assay has been performed by Eurofins Discovery.
assay.setup: ATP concentration 15.0 uM, Test compound concentration 10.0 uM
Overview of recorded Activity for various molecules
Could you give me the number in %? Just the number is fine.

Some entries whose results are on file:
COc1ccc([C@H](Cc2nnn[nH]2)NC(=O)c2ncnc3[nH]ccc23)cc1 ... 84
CNC(=O)Cn1cc(-c2cc3c(N[C@@H](c4ccc5c(c4)S(=O)(=O)CCC5)C(C)C)ncnc3[nH]2)cn1 ... 77

Switching to the query record.
Form field Activity, entry `C[C@H](C(=O)O)[C@@H](NC(=O)c1ncnc2[nH]ccc12)c1ccc(Br)cc1` : 72

* * *

Catalogue of Activity values
tested.target: Serine/threonine-protein kinase 10 (Homo sapiens)
test.protocol: Enzymatic radiometric [Km ATP] KinaseProfiler LeadHunter assay, kinase: LOK, catalogue number: 14-686KP The assay has been performed by Eurofins Discovery.
assay.setup: ATP concentration 120.0 uM, Test compound concentration 10.0 uM
// units = %; emit number, no label

Worked set:
C[C@H](C(=O)O)[C@@H](NC(=O)c1ncnc2[nH]ccc12)c1ccc(Br)cc1 ... 97
CNCc1cc(-c2cc3c(N[C@@H](c4ccc5c(c4)S(=O)(=O)CCC5)C(C)C)ncnc3[nH]2)co1 ... 92
COc1ccc([C@@H](Cc2nnn[nH]2)NC(=O)c2ncnc3[nH]ccc23)cc1 ... 96
CC(C)[C@@H](Nc1ncnc2[nH]ccc12)c1ccc2c(c1)S(=O)(=O)CCC2 ... 104
CNC(=O)Cn1cc(-c2cc3c(N[C@@H](c4ccc5c(c4)S(=O)(=O)CCC5)C(C)C)ncnc3[nH]2)cn1 ... 83
Cn1ncc(-c2cc3c(N[C@@H](c4ccc5c(n4)OCCO5)C(C)(C)C)ncnc3[nH]2)c1C#N ... 122

Activity in this record for `Cc1nn(C)cc1-c1cc2c(N[C@H](c3ccc4c(c3)S(=O)(=O)CCC4)C(C)C)ncnc2[nH]1` : 93

Activity measured on `CC(C)[C@H](Nc1ncnc2[nH]ccc12)c1ccc2c(c1)S(=O)(=O)CCC2` = 102

Measured Activity of `CC(C)[C@@H](Nc1ncnc2[nH]c(C(=O)N[C@@H]3CCN(C)C3)cc12)c1ccc2c(c1)S(=O)(=O)CCC2` : 99
